Assay: inhibitors of VEEV TC-83 cytopathic effect, confirmation, Vero cells (AID 588727)
Conditions: VEEV TC-83 cytopathic effect inhibition, at 20 µM
In all, about 350,000 compounds went through this assay and about 450 (0.13%) were called active. Only a sample is shown. Measured potencies and affinities stand elsewhere.
MEASURE NAME: outcome

COMPOUND | outcome
CC(CCc1ccccc1)OS(N)(=O)=O (centres undefined) | inactive
Oc1ccc(Cl)cc1N=Nc1ccccc1 | inactive
CCCCNC(=O)[C@@H]1CCCN1S(=O)(=O)c1cccc2cccnc12 | inactive
O=C(NC1CCCc2c1cnn2-c1ccccc1F)c1ccncc1 (centres undefined) | inactive
Cc1ccc(Nc2nc(=O)c3cccnc3s2)cc1 | inactive
O=C(NC1CCCc2c1cnn2-c1ccc(F)cc1F)c1ccccn1 (centres undefined) | inactive
O=C(Cn1nc(Cc2cccnc2)c2ccccc2c1=O)NCc1ccc(F)cc1 | inactive
COCCC(=O)NC1CCCc2c1cnn2-c1cccc(C)c1C (centres undefined) | inactive

Task item: // query outcome value for entry CSCCC(NS(=O)(=O)c1ccc2[nH]c(=O)c(=O)[nH]c2c1)C(=O)O (centres undefined)
Reply: inactive

Task item: Given `Cc1nc2ccccc2c(=O)n1NC(=O)/C=C/c1ccc(Br)cc1` , state its recorded outcome.
Reply: inactive

Task item: Give the measured outcome of `CCCc1c(C(=O)Nc2ccc(F)cc2F)cnn1-c1ccccc1` .
Reply: inactive

Task item: Dear colleague, I am looking for the recorded outcome of the following compound: O=C(NC1CONC1=O)OCC(Cl)(Cl)Cl (centres undefined)
Reply: inactive

Task item: State the recorded outcome for this entry: `Cc1onc(-c2ccccc2)c1C(=O)Nc1sc2c(c1C#N)CCC2`
Reply: inactive

Task item: Recorded outcome for `CC(=O)Nc1c2c(nn1-c1cccc(Cl)c1)CS(=O)(=O)C2` , please?
Reply: inactive

Task item: // returns reported outcome for input C=C1CC2C(=O)N(Cc3cc(OC)ccc3OC)C(C(=O)OCC)(C(=O)OCC)C1N2C(=O)OC(C)(C)C (centres undefined)
Reply: inactive

Task item: GET /values?readout=outcome&item= `Cc1cccc[n+]1CC(=O)c1ccc([N+](=O)[O-])cc1`
Reply: inactive

Task item: Quick one: outcome for `CC(=O)Nc1ccccc1C(=O)OCC(=O)c1ccccc1Cl` ?
Reply: inactive

Task item: For `Cc1ccc(Cl)cc1Nc1nc(N2CCOCC2)nc(N2CCOCC2)n1` , what is its reported outcome?
Reply: inactive

Task item: Dear colleague, I am looking for the recorded outcome of the following compound: `CN(C)/C=C/C(=O)/C=C/c1ccc(Cl)cc1Cl`
Reply: inactive

Task item: I have this compound here, `Cc1ccc(-c2nc(CSCC(=O)N3CCCC3)c(C)o2)cc1` , and I need its recorded outcome.
Reply: inactive

Task item: Return reported outcome; argument: Cc1cc(C(=O)NC2CCCc3c2cnn3-c2cccc(C)c2C)n(C)n1 (centres undefined)
Reply: inactive

Task item: Please look up its outcome: `Cc1c(C(=O)N(C)Cc2ccc(OC(F)F)cc2)oc2ccccc12`
Reply: inactive

Task item: Need outcome, item `C(=N\N1CCN(C(c2ccccc2)c2ccccc2)CC1)/c1ccc2c(c1)OCO2`
Reply: inactive

Task item: Fill in the blank: the reported outcome of `c1ccc(-c2nc(-c3ccccn3)no2)cc1` is ____.
Reply: inactive
